molecular target: T25-HP0220 (NifS) (Helicobacter pylori strain 26695, UniProt O25008 2-387); test: two-hybrid
Quantity Measured: growth OD595 in M63-maltose

Worked examples follow.
INSERT INTO measurements (binder, quantity_measured, result) VALUES
  ('T18-HP0221 (natural protein, Helicobacter pylori strain 26695, UniProt O25009 2-326, looked up) AKHDLVGSVLWDAYSKEVQRRMDNPTHLGVITEEQAKAKNAKLIVADYGAEACGDAVRLYWLVDESTDRIVDAKFKSFGCGTAIASSDMMVELCLNKRVQDAVKITNLDVERGLRDDPDTPAVPGQKMHCSVMAYDVIKKAAGMYLGKNAEDFEEEIIVCECARVSLGTIKEVIKLNDLKSVEEITNYTKAGAFCKSCVRPGGHEKRDYYLVDILKEVREEMEAEKLKATANKSQSGELAFREMTMVQKIKAVDKVIDENIRPMLMMDGGDLEILDIKESDDYIDVYIRYMGACDGCMSATTGTLFAIENALQELLDRSIRVLPI', 'growth OD595 in M63-maltose', '0.12 OD595'),
  ('T18-HP0220 (natural protein, Helicobacter pylori strain 26695, UniProt O25008 2-387, looked up) LQRIYLDNNATTRIDPKVKEIMDPFLRDHYGNPSSLHQFGTETHPAIAEALDKLYKGINARDIDDVIITSCATESNNWVLKGVYFDECLKKGKNHIVTTVAEHPAVRSTCNFLESLGVEVTYLPINEHGSITAEQVKEAITEKTALVSVMWANNETGLIFPIEEIGAICKEKGVLFHTDAVQAIGKIPVDVLKANADFLSFSAHKFHGPKGIGGLYIRSGVGLTPLFHGGEHMNGRRSGTLNVPYIVGMGEAMKLAVEHLDYEKEVVGKLRDKLEEALLKIPDVMVVGDRIHRVPNTTLVSVRGIEGEAMLWDLNRSNIAASTGSACASEDLEANPVMVAIGASKELAHTAIRLSLSRFNTEAEIDKTIEVFSQAAVRLRNISSSY', 'growth OD595 in M63-maltose', '0.29 OD595'),
  ('T18-HP0277 (natural protein, Helicobacter pylori strain 26695, UniProt O25054 2-84, looked up) SLLVNDECIACDACREECPSEAIEEGDPIYNIDPDRCTECYGYDDDEPRCVSVCPVDAILPDPNNAESKEELKYKYESLKEQD', 'growth OD595 in M63-maltose', '0.3 OD595');

[Q] I have this binder here, T18-HP0207 (natural protein, Helicobacter pylori strain 26695, UniProt O24999 2-368, looked up) LTQEDVLNALKTIIYPNFEKDIVSFGFVKNITLHDDQLGLLIEIPSSSEETSAILRENISKAMQEKGVKALNLDIKTPPKPQAPKPTTKNLAKNIKHVVMISSGKGGVGKSTTSVNLSIALANLNQKVGLLDADVYGPNIPRMMGLQSADVIMDPSGKKLIPLKAFGVSVMSMGLLYDEGQSLIWRGPMLMRAIEQMLSDIIWGDLDVLVVDMPPGTGDAQLTLAQAVPLSAGITVTTPQIVSLDDAKRSLDMFKKLHIPIAGIVENMGSFVCEHCKKESEIFGSNSMSELLEAYHTQILAKLPLEPKVRLGGDRGEPIVISHPNSVSAKIFEKMAQDLSAFLERVKKEKLADNKDIQPTQTHACSH , and I need its recorded growth OD595 in M63-maltose.
[A] 0.23 OD595
